# system name: human TREM2/DAP12 fusion protein (human, UniProt O43914 41-113, limits assumed)
# Sequence (O43914 other isoform, or with tags, fused parts or gaps limits assumed): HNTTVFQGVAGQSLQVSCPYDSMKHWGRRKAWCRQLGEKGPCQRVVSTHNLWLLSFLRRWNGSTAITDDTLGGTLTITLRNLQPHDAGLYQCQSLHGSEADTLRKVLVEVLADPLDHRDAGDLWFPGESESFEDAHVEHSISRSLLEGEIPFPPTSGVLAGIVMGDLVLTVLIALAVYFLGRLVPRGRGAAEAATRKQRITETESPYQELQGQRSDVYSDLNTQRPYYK
# assay details: cell-based or functional assay
measured attribute: Soluble luciferase activation at 10 µg/ml Fold over control

Solved cases (2 shown):
AL2p-h24 (antibody, human IgG1, V domains shown, humanized, human IgG1; Fab and IgG formats under one id) VH: QVQLVQSGAEVVKPGASLKISCKASGYAFSSSWMNWVRQAPGQGLEWIGRIYPGDGDTNYNQKFQGRATLTADTSTSTAYMELSSLRSEDTAVYFCARLLRNQPGESYAMDYWGQGALVTVSS VL: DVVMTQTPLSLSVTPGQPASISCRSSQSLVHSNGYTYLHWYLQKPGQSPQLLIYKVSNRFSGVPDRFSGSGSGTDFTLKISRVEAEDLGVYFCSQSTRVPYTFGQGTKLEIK; 4.36 fold over control
AL2p-h26 (antibody, human IgG1, V domains shown, humanized, human IgG1; Fab and IgG formats under one id) VH: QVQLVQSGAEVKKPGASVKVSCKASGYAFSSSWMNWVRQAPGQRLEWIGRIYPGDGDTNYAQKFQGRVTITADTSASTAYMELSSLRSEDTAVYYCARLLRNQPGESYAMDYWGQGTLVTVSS VL: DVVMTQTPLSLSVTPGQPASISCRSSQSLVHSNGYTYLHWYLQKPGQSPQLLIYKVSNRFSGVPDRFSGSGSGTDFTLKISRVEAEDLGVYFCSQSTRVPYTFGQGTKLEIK; 7.25 fold over control

Switching to the query record.
Indicate the recorded Soluble luciferase activation at 10 µg/ml Fold over control value for this binder: AL2p-h76 (antibody, human IgG1, V domains shown, humanized, human IgG1; Fab and IgG formats under one id) VH: QVQLVQSGAEVKKPGASVKVSCKASGYAFSSSWMNWVRQAPGQRLEWIGRIYPGDGDTNYAQKFQGRATITADTSASTAYMELSSLRSEDTAVYFCARLLRNQPGESYAMDYWGQGTLVTVSS VL: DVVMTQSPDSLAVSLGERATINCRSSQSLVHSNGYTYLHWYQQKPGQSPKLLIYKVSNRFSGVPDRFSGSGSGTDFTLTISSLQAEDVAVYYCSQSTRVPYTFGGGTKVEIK
6.57 fold over control
